Assayed target: CaMK2a (Mus musculus)
Construct: […]; from tissue; host or cells: mouse brain
Sequence (P11798 whole entry): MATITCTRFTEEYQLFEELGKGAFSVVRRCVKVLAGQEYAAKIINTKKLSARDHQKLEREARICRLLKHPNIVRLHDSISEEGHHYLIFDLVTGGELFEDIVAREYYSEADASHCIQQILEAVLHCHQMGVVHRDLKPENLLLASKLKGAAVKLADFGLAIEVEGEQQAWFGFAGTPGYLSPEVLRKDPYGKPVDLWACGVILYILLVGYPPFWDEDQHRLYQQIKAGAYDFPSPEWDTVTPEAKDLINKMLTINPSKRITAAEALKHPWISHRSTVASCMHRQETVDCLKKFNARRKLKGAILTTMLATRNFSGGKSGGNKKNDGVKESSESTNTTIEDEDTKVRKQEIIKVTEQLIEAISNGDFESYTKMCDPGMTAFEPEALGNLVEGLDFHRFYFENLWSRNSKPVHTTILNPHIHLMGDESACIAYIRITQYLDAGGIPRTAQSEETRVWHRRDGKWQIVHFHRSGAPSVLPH
Protocol description: Kinobeads elution with test compound, mouse brain lysate, MS
Format: binding
Test context: kinase released from kinobeads by specific elution
Binary call on number of identified peptides, CaMK2a: condition met from 40 upward, condition not met beneath that.

# Compound, Class label
measured = [
    ("CNC1CC2OC(C)(C1OC)n1c3ccccc3c3c4c(c5c6ccccc6n2c5c31)C(=O)NC4 (stereo not drawn)", "condition met"),
    ("Cn1c(=O)c(-c2c(Cl)cccc2Cl)cc2cnc(Nc3ccc(CN)cc3)cc21", "condition not met"),
    ("NCc1ccc(Nc2ncc(F)c(Nc3ccccc3)n2)cc1", "condition met"),
    ("CC(C)[C@H](CO)Nc1nc(Nc2ccc(C(=O)O)c(Cl)c2)c2ncn(C(C)C)c2n1 [Purvalanol B, reference compound]", "condition not met"),
    ("CCCCCCCCCCCCOS(=O)(=O)[O-].[Na+]", "condition met"),
    ("NCCCn1cc(C2=C(c3c[nH]c4ccccc34)C(=O)NC2=O)c2ccccc21 [CZC1038, Bisindolylmaleimide III, reference compound]", "condition met"),
]

Origin of values: patent US20090238808A1
